Just for reference, patent US20240400560A1 is where these values come from.

Measurement target: UniProtKB P0DTD1
Measurement protocol: Inhibitory activity test against SARS-CoV-2 3CL proteases
Format: biochemical
Condition info: read-out: IC50 (50% SARS-CoV-2 3CL protease inhibitory concentration)
Readout: IC50

>>> result_value("COc1nc(N2CC[C@@H](F)C2)cc2c1c(=O)n(Cc1ncn(C)n1)c(=O)n2-c1ccc(C)c(Cl)c1")
"< 0.1 µM"

Measured IC50, `COc1nc(N2CCC(F)(F)C2)cc2c1c(=O)n(-c1cnc3ccc(C#N)cn13)c(=O)n2-c1ccc(F)c(Cl)c1` : < 0.1 µM

`COc1nc(N2CC[C@@H](C(C)(C)O)C2)cc2c1c(=O)n(-c1cncc(Cl)c1)c(=O)n2-c1ccc(F)c(Cl)c1` yielded IC50 of < 0.1 µM

IC50 recorded for this molecule, `COc1nc(N2CC[C@@H](C#N)C2)cc2c1c(=O)n(-c1cnc3cc(F)ccn13)c(=O)n2-c1ccc(F)c(C(F)F)c1` , is < 0.1 µM

* * *

Each entry below carries its recorded pEC50.
Tested on: SARS-CoV-2
Measurement protocol: Inhibitory activity of cytopathic effect (CPE) in HEK293T/ACE2-TMPRSS2 cells
Type: cell-based
Condition info: Severe acute respiratory syndrome coronavirus 2, HEK-293T, 72 h; HEK293T/ACE2-TMPRSS2 cells, cultured 3 days, CellTiter-Glo 2.0 luminescence; read-out: EC50 (50% SARS-CoV-2 infected cell death inhibitory concentration)
pEC50: −log10 of the molar value.

>>> result_value("COc1ccc(Cl)c(-c2cc(OC)c3c(=O)n(Cc4ncn(C)n4)c(=O)n(Cc4cc(F)c(F)c(F)c4)c3c2)c1F")
"6.00 to 7.00"

Attention now shifts to the item below.
In plain terms, `COc1nc(N2CC[C@@H](C#N)C2)cc2c1c(=O)n(-c1cncc(C#N)c1)c(=O)n2-c1ccc(F)c(F)c1` has a documented pEC50 of > 7.00

* * *

EC50 values for the compounds below.
System: SARS-CoV-2
Measurement protocol: Inhibitory activity of cytopathic effect (CPE) in HEK293T/ACE2-TMPRSS2 cells
Format: cell-based
Condition info: Severe acute respiratory syndrome coronavirus 2, HEK-293T, 72 h; HEK293T/ACE2-TMPRSS2 cells, cultured 3 days, CellTiter-Glo 2.0 luminescence; read-out: EC50 (50% SARS-CoV-2 infected cell death inhibitory concentration)

Noted EC50 for `CCOc1nc2cc(-c3cc(OC)c4c(=O)n(Cc5ncn(C)n5)c(=O)n(Cc5cc(F)c(F)c(F)c5)c4c3)c(Cl)cc2[nH]1` , tested on SARS-CoV-2: 100 to 1000 nM

Per the reported SARS-CoV-2 data, COc1nc(N2CCC(S(C)(=O)=O)C2)cc2c1c(=O)n(-c1cncc(Cl)c1)c(=O)n2-c1ccc(F)c(Cl)c1 (stereo not drawn) has EC50 of < 100 nM

Let me check: `CCN(C)c1cc2c(c(OC)n1)c(=O)n(-c1cnc3cc(F)ccn13)c(=O)n2-c1ccc(F)c(Cl)c1` , system SARS-CoV-2, measured EC50 is < 100 nM

Observed EC50 on SARS-CoV-2, entry `Cn1cnc(Cn2c(=O)c3c4nccnc4c(-c4cc(C#N)ccc4Cl)cc3n(Cc3cc(F)c(F)c(F)c3)c2=O)n1` , equals < 100 nM

The compound `COC[C@@H]1CCN(c2cc3c(c(OC)n2)c(=O)n(-c2cnc4cc(F)ccn24)c(=O)n3-c2ccc(F)c(Cl)c2)C1` on SARS-CoV-2: EC50 was < 100 nM

// returns EC50 for `COc1nc(N2CC[C@@H](C#N)C2)cc2c1c(=O)n(-c1cncc(C#N)c1)c(=O)n2-c1ccc(F)c(Cl)c1` with SARS-CoV-2; value = < 100 nM

* * *

Entries and their pIC50
Measurement target: SARS-CoV-2 3CL protease (Severe acute respiratory syndrome coronavirus 2, UniProt P0DTD1)
Measurement protocol: Inhibitory activity test against SARS-CoV-2 3CL proteases
Format: biochemical
Condition info: read-out: IC50 (50% SARS-CoV-2 3CL protease inhibitory concentration)
pIC50: −log10 of the molar value.

Observe how each entry below is paired with its result.
>>> result_value("COc1cc(-c2cc3c(C(F)(F)F)n[nH]c3cc2Cl)cc2c1c(=O)n(Cc1ncn(C)n1)c(=O)n2Cc1cc(F)c(F)c(F)c1 [Compound I-0875]")
"> 7.00"
>>> result_value("COc1nc(N2CC[C@@H](O)C2)cc2c1c(=O)n(-c1cnc3cc(F)c(F)cn13)c(=O)n2-c1ccc(F)c(Cl)c1 [Compound I-0967]")
"> 7.00"

Here is another compound to look at.
Field pIC50 (entry COc1nc(N2CCC(F)(F)C2)cc2c1c(=O)n(-c1cncc(C)n1)c(=O)n2-c1ccc(F)c(Cl)c1 [Compound I-0997] ) reads > 7.00

* * *

Measurement target: SARS-CoV-2 3CL protease (Severe acute respiratory syndrome coronavirus 2)
Measurement protocol: Inhibitory activity test against SARS-CoV-2 3CL proteases
Type: biochemical
Condition info: read-out: IC50 (50% SARS-CoV-2 3CL protease inhibitory concentration)
pIC50: −log10 of the molar value.
Below, each entry is listed alongside its reported pIC50.

>>> result_value("COc1cc(-c2cc(CC(=O)N3CC[C@H](N)C3)ccc2Cl)cc2c1c(=O)n(-c1cncc(Cl)c1)c(=O)n2Cc1cc(F)c(F)c(F)c1 [Compound I-0211]")
"> 7.00"

// sample CCOc1cc(-c2cc(C#N)ccc2Cl)cc2c1c(=O)n(-c1cncc(C)c1)c(=O)n2Cc1ccc(F)c(C#N)c1 [Compound I-0295] , its pIC50 was 7.82

Per the records, this molecule ( COc1nc(N2CC[C@@H](C#N)C2)cc2c1c(=O)n(-c1cnc3cc(F)ccn13)c(=O)n2-c1ccc(F)c(F)c1 [Compound I-0959] ) has pIC50 equal to > 7.00

Reported pIC50 of COc1cc(-c2cc(C#N)ccc2Cl)cc2c1c(=O)n(-c1cncc(Cl)c1)c(=O)n2Cc1ccc(F)c(C#N)c1 [Compound I-0033] : 7.89

For this molecule ( COc1cc(-c2cc(CC(=O)NCCN(C)C)ccc2Cl)cc2c1c(=O)n(-c1cncc(Cl)c1)c(=O)n2Cc1ccc(F)c(C#N)c1 [Compound I-0203] ), measured pIC50 is > 7.00

Notebook: COc1cc(-c2cccc(C#N)c2Cl)cc2c1c(=O)n(Cc1ncn(C)n1)c(=O)n2Cc1cc(F)c(F)c(F)c1 [Compound I-0847] , pIC50 read as > 7.00

// field: pIC50; key: Cc1cncc(-n2c(=O)c3c(Cl)cc(-c4cc5c(cc4Cl)NC(=O)C5)cc3n(Cc3ccc(F)c(C#N)c3)c2=O)c1 [Compound I-0004] ; value = 8.00

* * *

Measurement target: SARS-CoV-2 3CL protease (Severe acute respiratory syndrome coronavirus 2, UniProt P0DTD1)
Measurement protocol: Inhibitory activity test against SARS-CoV-2 3CL proteases
Type: biochemical
Condition info: read-out: IC50 (50% SARS-CoV-2 3CL protease inhibitory concentration)
pIC50: −log10 of the molar value.
Readout: pIC50

>>> result_value("COc1nc(N2CC[C@@H](F)C2)cc2c1c(=O)n(Cc1ncn(C)n1)c(=O)n2-c1cc(F)c(Cl)c(Cl)c1 [Compound I-0802]")
7.62
>>> result_value("COc1nc2c(=O)n(Cc3ncn(C)n3)c(=O)n(Cc3cc(Cl)c(F)cc3C)c2cc1-c1ncc(F)cc1Cl [Compound I-0580]")
"> 7.00"
>>> result_value("COc1nc(N2CCC(F)(F)C2)cc2c1c(=O)n(-c1cncc(F)c1)c(=O)n2-c1ccc(F)c(Cl)c1 [Compound I-0998]")
"> 7.00"
>>> result_value("COc1cc(-c2cc3cc[nH]c3cc2Cl)cc2c1c(=O)n(Cc1ncn(C)n1)c(=O)n2Cc1cc(F)c(F)c(F)c1 [Compound I-0901]")
"> 7.00"
>>> result_value("CC(C)Nc1cc2c(c(=O)n(Cc3ncn(C)n3)c(=O)n2Cc2cc(F)c(F)c(Cl)c2)c2nccnc12 [Compound I-0575]")
"> 7.00"
>>> result_value("COc1cc(-c2c(Cl)ccc3ncccc23)cc2c1c(=O)n(Cc1ncn(C)n1)c(=O)n2Cc1cc(F)c(F)c(F)c1 [Compound I-0124]")
"> 7.00"
>>> result_value("O=c1c2c(=O)n(-c3cnc4cc(F)ccn34)c(=O)n(-c3ccc(F)c(Cl)c3)c2cc2n1CC[C@@H]1CCCCN21 [Compound I-1048]")
7.64
>>> result_value("Cn1cnc(Cn2c(=O)c3c(cc(-c4cc(C#N)ccc4Cl)n4c(=O)[nH]nc34)n(Cc3cc(F)c(F)c(F)c3)c2=O)n1 [Compound I-0647]")
8.24

Proceed to the following item.
Entry COc1cc(-c2cc(NS(C)(=O)=O)ccc2Cl)cc2c1c(=O)n(-c1cncc(Cl)c1)c(=O)n2Cc1cc(F)c(F)c(F)c1 [Compound I-0079] ; pIC50 = > 7.00
